- tested.on: human LTA4 hydrolase (Homo sapiens, UniProt P09960)
- assay.remarks: LTA4H Enzyme assay (cleavage of Arg-AMC, fluorescence)
- Assay type: biochemical
- experimental.parameters: LTA4H Enzyme 1 nM, Arg-AMC substrate 50 μM, room temperature 1 h, fluorescence; read-out: IC50 values of LTA4H Enzyme assay
readout.type: pIC50
Field pIC50 (float): negative decimal logarithm of the concentration in molar.

pIC50 reading for CN(C)C(=O)CC1CCN(Cc2ccc(C3COc4ccccc4O3)cc2)CC1 (racemic) : 8.94

Kindly note the recorded pIC50 for `O=C(O)[C@H]1CC[C@@H](NCc2ccc([C@H]3COc4ccccc4O3)cc2)C1` , which is 8.79

Measured pIC50, OCC1CCCN(Cc2ccc([C@H]3COc4ccccc4O3)cc2)C1 (stereo partly shown) : 9.22

Recorded pIC50 (molecule `O=C1OC[C@H]2CN(Cc3ccc([C@H]4COc5cccnc5O4)cc3)CCN12` ): 9.00

---

- tested.on: human LTA4 hydrolase (Homo sapiens)
- Sequence (P09960 1-611): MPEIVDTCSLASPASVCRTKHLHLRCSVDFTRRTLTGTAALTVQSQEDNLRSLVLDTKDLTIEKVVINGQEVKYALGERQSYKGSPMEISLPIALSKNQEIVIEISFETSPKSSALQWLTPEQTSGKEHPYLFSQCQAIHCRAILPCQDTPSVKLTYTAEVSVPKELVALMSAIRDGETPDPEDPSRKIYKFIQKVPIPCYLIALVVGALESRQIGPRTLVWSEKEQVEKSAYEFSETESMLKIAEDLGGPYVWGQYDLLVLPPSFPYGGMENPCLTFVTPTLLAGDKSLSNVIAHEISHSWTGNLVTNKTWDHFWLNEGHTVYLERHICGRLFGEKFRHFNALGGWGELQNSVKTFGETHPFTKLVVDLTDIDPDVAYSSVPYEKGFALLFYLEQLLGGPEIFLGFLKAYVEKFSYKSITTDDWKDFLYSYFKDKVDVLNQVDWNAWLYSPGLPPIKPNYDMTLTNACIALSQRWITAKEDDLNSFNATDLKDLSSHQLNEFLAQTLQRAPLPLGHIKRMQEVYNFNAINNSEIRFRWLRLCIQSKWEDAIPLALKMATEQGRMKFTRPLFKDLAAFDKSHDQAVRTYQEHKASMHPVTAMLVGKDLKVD
- assay.remarks: LTA4H Enzyme assay (cleavage of Arg-AMC, fluorescence)
- Assay type: biochemical
- experimental.parameters: LTA4H Enzyme 1 nM, Arg-AMC substrate 50 μM, room temperature 1 h, fluorescence; read-out: IC50 values of LTA4H Enzyme assay
readout.type: IC50 (nM)
Give the number; nM is assumed, so skip it.

// sample `CCN(Cc1ccc([C@H]2COc3ccccc3O2)cc1)Cc1cccc(C(=O)O)c1` , its IC50 was 0.55

The recorded IC50 for `COC1CN(Cc2ccc([C@H]3COc4cccnc4O3)cc2)C1` is 0.68

According to the records, this compound `OCC1CCN(Cc2ccc([C@H]3COc4ccccc4O3)cc2)CC1` displays IC50 of 0.77

// recorded IC50 for `c1cnc2c(c1)OC[C@H](c1ccc(CN3CCn4cnnc4C3)cc1)O2` : 0.91

For this compound ( `O[C@H]1CCN(Cc2ccc([C@H]3COc4ccccc4O3)cc2)C1` ), measured IC50 is 0.54

compound `O=C1CCN(Cc2ccc([C@H]3COc4cccnc4O3)cc2)CCN1` , IC50 observed: 0.91

The measured IC50 associated with NC(=O)CN1CCCC12CCN(Cc1ccc([C@H]3COc4ccccc4O3)cc1)C2 (stereo partly drawn) reads 0.73

IC50 measured on `CCCCN(Cc1ccc(C(=O)O)cc1)Cc1ccc([C@H]2COc3ccccc3O2)cc1` = 0.81

For record COCC(=O)N1CCCC12CCN(Cc1ccc([C@H]3COc4ccccc4O3)cc1)C2 (stereo partly drawn) the listed IC50 is 0.65

# compound `O=C(O)[C@H]1CCCN(Cc2ccc([C@H]3COc4ccccc4O3)cc2)C1` ; its IC50 = 1.3

// O=C(C1CCN(Cc2ccc(C3COc4ccccc4O3)cc2)CC1)N1CCOCC1 (racemic) : IC50 value = 1.05

response.value for OCC1CCN(Cc2ccc(C3COc4ccccc4O3)cc2)CC1 (racemic) (field: IC50) = 1.2

Note to self: IC50 recorded for CN1CCCN(Cc2ccc(C3COc4ccccc4O3)cc2)CC1 (racemic) was 1.77

Quick note, IC50 for CC(=O)N1CCCN(Cc2ccc(C3COc4ccccc4O3)cc2)CC1 (racemic) landed at 1.54

compound `NC(=O)[C@H]1CCCC[C@H]1NCc1ccc([C@H]2COc3ccccc3O2)cc1` , IC50 observed: 0.92

---

Could you please report measured IC50 for the items listed next?
- tested.on: human LTA4 hydrolase (Homo sapiens)
- Sequence (P09960 1-611): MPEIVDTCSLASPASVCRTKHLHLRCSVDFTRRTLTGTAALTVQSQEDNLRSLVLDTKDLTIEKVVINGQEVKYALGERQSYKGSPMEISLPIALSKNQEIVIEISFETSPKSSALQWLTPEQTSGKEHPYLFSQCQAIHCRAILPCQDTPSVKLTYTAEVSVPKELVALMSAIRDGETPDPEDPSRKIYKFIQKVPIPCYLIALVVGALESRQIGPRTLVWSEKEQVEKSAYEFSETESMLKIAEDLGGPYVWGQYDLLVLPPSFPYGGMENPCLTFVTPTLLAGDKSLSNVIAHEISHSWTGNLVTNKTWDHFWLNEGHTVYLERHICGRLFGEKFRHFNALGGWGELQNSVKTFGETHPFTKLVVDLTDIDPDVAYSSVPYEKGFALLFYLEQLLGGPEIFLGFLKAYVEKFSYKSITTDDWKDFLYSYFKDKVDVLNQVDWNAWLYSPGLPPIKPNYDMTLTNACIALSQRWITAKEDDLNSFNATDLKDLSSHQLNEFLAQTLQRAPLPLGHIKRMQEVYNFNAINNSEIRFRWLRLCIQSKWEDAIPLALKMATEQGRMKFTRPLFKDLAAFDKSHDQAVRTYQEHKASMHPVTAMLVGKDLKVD
- assay.remarks: LTA4H Enzyme assay (cleavage of Arg-AMC, fluorescence)
- Assay type: biochemical
- experimental.parameters: LTA4H Enzyme 1 nM, Arg-AMC substrate 50 μM, room temperature 1 h, fluorescence; read-out: IC50 values of LTA4H Enzyme assay

Recorded result, CC(c1ccc([C@H]2COc3ccccc3O2)cc1)N1CCC(C(=O)O)CC1 (stereo partly drawn) , IC50: 1.4 nM

Noted for `[O-][S+]1CCN(Cc2ccc([C@H]3COc4cccnc4O3)cc2)CC1` : its IC50 reads 0.79 nM

Sure, the documented IC50 for `CC(=O)N1CC2CCC(C1)N2Cc1ccc([C@H]2COc3cccnc3O2)cc1` is 0.65 nM

---

- tested.on: human LTA4 hydrolase (Homo sapiens, UniProt P09960)
- assay.remarks: LTA4H Enzyme assay (cleavage of Arg-AMC, fluorescence)
- Format: biochemical
- experimental.parameters: LTA4H Enzyme 1 nM, Arg-AMC substrate 50 μM, room temperature 1 h, fluorescence; read-out: IC50 values of LTA4H Enzyme assay
readout.type: IC50 (pM)
Could you give me the number in pM? Just the number is fine.

Test item `CC(=O)N[C@H]1[C@@H]2CN(Cc3ccc([C@H]4COc5cccnc5O4)cc3)C[C@@H]21` ; human LTA4 hydrolase (Homo sapiens, UniProt P09960); reported IC50 was 560

Entry `CN(Cc1ccc([C@H]2COc3ccccc3O2)cc1)C1CCCCC1` under human LTA4 hydrolase (Homo sapiens, UniProt P09960) had IC50 of 610

Item `CC(=O)N1CC[C@@H](NCc2ccc([C@H]3COc4ccccc4O3)cc2)C1` ; assay system human LTA4 hydrolase (Homo sapiens, UniProt P09960); IC50 reported as 830

Reported IC50 (human LTA4 hydrolase (Homo sapiens, UniProt P09960)) for entry COCCN(C)Cc1ccc(C2COc3ccccc3O2)cc1 (racemic) is 3190

Considering `CC1(C(=O)O)CCN(Cc2ccc([C@H]3COc4ccccc4O3)cc2)CC1` , its IC50 with human LTA4 hydrolase (Homo sapiens, UniProt P09960) was recorded as 690

Simply: O=S1(=O)CCN(Cc2ccc(C3COc4ccccc4O3)cc2)CC1 (racemic) , human LTA4 hydrolase (Homo sapiens, UniProt P09960), IC50 = 2790

Measured IC50 (human LTA4 hydrolase (Homo sapiens, UniProt P09960)), entry COC1CN(Cc2ccc(C3COc4ccccc4O3)cc2)C1 (racemic) : 4450

---

For each entry below, report its pIC50 value.
- tested.on: human LTA4 hydrolase (Homo sapiens, UniProt P09960)
- assay.remarks: LTA4H Enzyme assay (cleavage of Arg-AMC, fluorescence)
- Format: biochemical
- experimental.parameters: LTA4H Enzyme 1 nM, Arg-AMC substrate 50 μM, room temperature 1 h, fluorescence; read-out: IC50 values of LTA4H Enzyme assay
- Procedure: The compounds of the invention are assessed for the ability to interact with human LTA4 hydrolase in an enzymatic assay that measures the ability of the enzyme to cleave the peptide bond of arginyl-aminomethylcoumarin (Arg-AMC). […] The formation of product is assessed by measuring the fluorescence of aminomethylcoumarin product (excitation wavelength 380 nm/emission wavelength 460 nm).
Keep in mind that pIC50 stands for -log10 of concentration in molar terms.

For record COC1CCN(Cc2ccc([C@H]3COc4cccnc4O3)cc2)C1 (stereo partly drawn) [Example 168] the listed pIC50 is 9.51

pIC50 measured on CC(=O)N1CC2CN(Cc3ccc([C@H]4COc5cccnc5O4)cc3)CC2C1 (stereo partly drawn) [Example 270] = 9.85

// pIC50 lookup, compound = CS(=O)(=O)C1CCN(Cc2ccc(C3COc4ccccc4O3)cc2)CC1 (racemic) [Example 39] , result: 8.67

Please fill in: pIC50 reported for OCCC1CCN(Cc2ccc([C@H]3COc4ccccc4O3)cc2)CC1 [Example 70] = 9.24

The compound listed as O=C(C1CCN(Cc2ccc([C@H]3COc4ccccc4O3)cc2)CC1)N1CCOCC1 [Example 180] shows pIC50 equal to 9.92

Just so you know, measured pIC50 for N#CC1CCN(Cc2ccc([C@H]3COc4ccccc4O3)cc2)CC1 [Example 177] came out at 8.84

Entry under test: CC(=O)N1CCCC12CCN(Cc1ccc([C@H]3COc4ccccc4O3)cc1)C2 (stereo partly drawn) [Example 118] . Its pIC50 was 9.35

Item: CC(C)(O)CNC(=O)C1CCN(Cc2ccc([C@H]3COc4cccnc4O3)cc2)CC1 [Example 255] | pIC50: 9.77

Sample CC(C)(O)C(=O)NCC1CCN(Cc2ccc([C@H]3COc4cccnc4O3)cc2)CC1 [Example 262] ; pIC50 observed: 9.29

pIC50 reported for this compound OCC1CCN(Cc2ccc([C@H]3COc4cccnc4O3)cc2)CC1 [Example 146] : 9.54

pIC50 reading for NC(=O)c1nnc2n1CCN(Cc1ccc([C@H]3COc4cccnc4O3)cc1)C2 [Example 241] : 9.30

Note to self: pIC50 recorded for O[C@@H]1CCN(Cc2ccc([C@H]3COc4cccnc4O3)cc2)C1 [Example 144] was 9.85

The value of pIC50 measured for the compound O=C1NCCC12CCN(Cc1ccc([C@@H]3COc4ccccc4O3)cc1)CC2 (single isomer, unassigned) [Example 195] turned out to be 8.80

pIC50 reported for this compound O=C(O)c1ccc2c(c1)CN(Cc1ccc([C@H]3COc4ccccc4O3)cc1)CC2 [Example 232] : 8.56

Per the record, CC(C)(O)C(=O)NC1CCN(Cc2ccc([C@H]3COc4ccccc4O3)cc2)CC1 [Example 220] has pIC50 of 9.33

These measurements were taken from patent US8946203B2.
